Value source: patent US20080090834A1

Catalogue of IC50 values
target.desc: cloned rat PDE10A full-length enzyme (Rattus norvegicus, UniProt Q9QYJ6)
Construct: cloned rat PDE10A full-length enzyme grown in transfected Sf9 insect cells
Sequence (Q9QYJ6 whole entry): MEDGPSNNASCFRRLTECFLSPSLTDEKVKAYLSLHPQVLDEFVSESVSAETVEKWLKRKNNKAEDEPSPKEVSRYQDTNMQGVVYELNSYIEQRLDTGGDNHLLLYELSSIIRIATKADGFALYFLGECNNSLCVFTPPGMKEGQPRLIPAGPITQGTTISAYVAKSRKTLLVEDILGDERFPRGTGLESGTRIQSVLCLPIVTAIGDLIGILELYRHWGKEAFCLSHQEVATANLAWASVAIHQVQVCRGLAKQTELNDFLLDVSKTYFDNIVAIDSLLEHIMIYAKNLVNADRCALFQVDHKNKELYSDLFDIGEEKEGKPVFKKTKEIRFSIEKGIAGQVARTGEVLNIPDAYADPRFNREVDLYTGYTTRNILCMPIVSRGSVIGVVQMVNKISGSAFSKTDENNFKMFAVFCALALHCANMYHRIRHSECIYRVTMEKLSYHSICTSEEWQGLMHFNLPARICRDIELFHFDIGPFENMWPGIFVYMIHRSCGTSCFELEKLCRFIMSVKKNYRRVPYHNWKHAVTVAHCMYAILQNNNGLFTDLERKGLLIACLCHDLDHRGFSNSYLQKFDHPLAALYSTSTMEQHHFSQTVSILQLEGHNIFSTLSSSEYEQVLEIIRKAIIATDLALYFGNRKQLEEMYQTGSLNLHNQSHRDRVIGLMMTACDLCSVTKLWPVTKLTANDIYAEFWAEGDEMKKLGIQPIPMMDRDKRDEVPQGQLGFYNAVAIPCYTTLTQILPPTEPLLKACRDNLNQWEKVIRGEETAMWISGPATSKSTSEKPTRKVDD
protocol.notes: PDE10 enzyme inhibition, [3H]cAMP scintillation proximity assay
run.parameters: rat PDE10A from Sf9 cells, 20 nM [3H]cAMP, SPA beads, 20 minute incubation at room temperature
Value expressed in nM; do not type the unit.

Cc1ccc(-n2cc(-c3cscn3)nc2-c2ccc(-n3c(C(F)(F)F)nc4cccnc43)cc2)cn1
1.54
COc1nc2cccnc2n1-c1ccc(-c2nc(-c3nc(C)cs3)cn2-c2ccc(C)nc2)cc1
0.287
c1cncc(-n2cc(-c3nccs3)nc2-c2ccc(-n3ccc4cccnc43)cc2)c1
3.32

// Input: Cc1ccc(-n2cc(-c3ccccn3)nc2-c2ccc(-n3c(=O)[nH]c4cccnc43)cc2)cn1 . Output its IC50 only.
3.91
